The values you see were collected from the Immune Epitope Database (IEDB).

Study System: HLA-A*33:01
Test Name: IEDB peptide-MHC binding, purified MHC/competitive/radioactivity; filed as Kd, often an IC50 or EC50 that approximates it; bounds were set here for any values at or beyond the usual limits of such assays
Measurement Conditions: source organism: Dengue virus 2 Peru/IQT2913/1996
pKd: −log10 of the molar value.
Property Measured: pKd

[[record]]
chain_sequence = "FVCKHSMVDR"
property_measured = "pKd"
recorded_measurement = 6.91


###

Study System: HLA-B*57:01
Test Name: IEDB peptide-MHC binding, purified MHC/direct/fluorescence; filed as Kd, often an IC50 or EC50 that approximates it; bounds were set here for any values at or beyond the usual limits of such assays
Measurement Conditions: source organism: Listeria monocytogenes serotype 4b str. H7858
Property Measured: Kd

[[record]]
chain_sequence = "FRDEAGAIL"
recorded_measurement = "≥ 20 µM"


###

# key: entry, value: pKd
Study System: HLA-B*18:01
Test Name: IEDB peptide-MHC binding, purified MHC/competitive/radioactivity; filed as Kd, often an IC50 or EC50 that approximates it; bounds were set here for any values at or beyond the usual limits of such assays
Measurement Conditions: source organism: Mammarenavirus brazilense
pKd: −log10 of the molar value.
Property Measured: pKd

[[record]]
chain_sequence = "LESAQPGLL"
recorded_measurement = "≤ 5.00"

[[record]]
chain_sequence = "IDPTLTTWI"
recorded_measurement = "≤ 4.38"

[[record]]
chain_sequence = "GEHSLPRCW"
recorded_measurement = "≤ 4.11"


###

Study System: HLA-A*11:01
Test Name: IEDB peptide-MHC binding, purified MHC/competitive/radioactivity; filed as Kd, often an IC50 or EC50 that approximates it; bounds were set here for any values at or beyond the usual limits of such assays
Measurement Conditions: source organism: Hepacivirus hominis
Property Measured: Kd

[[record]]
chain_sequence = "HSKRKCDEL"
property_measured = "Kd"
recorded_measurement = "≥ 77.9 µM"


###

Study System: HLA-B*18:01
Test Name: IEDB peptide-MHC binding, purified MHC/direct/fluorescence; filed as Kd, often an IC50 or EC50 that approximates it; bounds were set here for any values at or beyond the usual limits of such assays
Measurement Conditions: source organism: Influenza A virus (A/chicken/Vietnam/393/2005(H5N1))
Property Measured: Kd

[[record]]
chain_sequence = "VLTGNLQTL"
study_system = "HLA-B*18:01"
property_measured = "Kd"
recorded_measurement = "≥ 20 µM"


###

Study System: HLA-B*27:03
Test Name: IEDB peptide-MHC binding, purified MHC/competitive/fluorescence; filed as Kd, often an IC50 or EC50 that approximates it; bounds were set here for any values at or beyond the usual limits of such assays
Measurement Conditions: source organism: Cryptosporidium parvum Iowa II
# key: entry, value: Kd
Property Measured: Kd

[[record]]
chain_sequence = "KIFKVTGEF"
recorded_measurement = "≥ 20 µM"

[[record]]
chain_sequence = "KLGDITLFL"
recorded_measurement = "≥ 20 µM"


###

Study System: HLA-A*02:03
Test Name: IEDB peptide-MHC binding, purified MHC/competitive/radioactivity; filed as Kd, often an IC50 or EC50 that approximates it; bounds were set here for any values at or beyond the usual limits of such assays
Measurement Conditions: source organism: Vaccinia virus WR
pKd: −log10 of the molar value.
Property Measured: pKd

[[record]]
chain_sequence = "DTLVKSGLT"
study_system = "HLA-A*02:03"
recorded_measurement = 5.54

[[record]]
chain_sequence = "QIGGEAIFLI"
study_system = "HLA-A*02:03"
recorded_measurement = 9.70

[[record]]
chain_sequence = "KTIAVSVYGA"
study_system = "HLA-A*02:03"
recorded_measurement = 6.65

[[record]]
chain_sequence = "NLCKYLRGHT"
study_system = "HLA-A*02:03"
recorded_measurement = 5.09

[[record]]
chain_sequence = "LTQVKELGIA"
study_system = "HLA-A*02:03"
recorded_measurement = 6.82

[[record]]
chain_sequence = "DVKVLAARL"
study_system = "HLA-A*02:03"
recorded_measurement = 4.97

[[record]]
chain_sequence = "CVRNLEELTT"
study_system = "HLA-A*02:03"
recorded_measurement = 4.82

[[record]]
chain_sequence = "GVLHTKFWI"
study_system = "HLA-A*02:03"
recorded_measurement = 4.91

[[record]]
chain_sequence = "FVMCLEAKT"
study_system = "HLA-A*02:03"
recorded_measurement = 5.71

[[record]]
chain_sequence = "YTRPEIDVL"
study_system = "HLA-A*02:03"
recorded_measurement = 7.13

[[record]]
chain_sequence = "LIYRQLTSNV"
study_system = "HLA-A*02:03"
recorded_measurement = 8.13

[[record]]
chain_sequence = "FVKENERVNV"
study_system = "HLA-A*02:03"
recorded_measurement = 7.93

[[record]]
chain_sequence = "TVPTNDHIPV"
study_system = "HLA-A*02:03"
recorded_measurement = 5.72

[[record]]
chain_sequence = "IIPFIAYFVL"
study_system = "HLA-A*02:03"
recorded_measurement = 5.33

[[record]]
chain_sequence = "TLNEYKQLYT"
study_system = "HLA-A*02:03"
recorded_measurement = 6.11

[[record]]
chain_sequence = "STVDVRNIV"
study_system = "HLA-A*02:03"
recorded_measurement = 5.46

[[record]]
chain_sequence = "LVKDESIQL"
study_system = "HLA-A*02:03"
recorded_measurement = 6.19

[[record]]
chain_sequence = "AAAKTPVIV"
study_system = "HLA-A*02:03"
recorded_measurement = 5.85

[[record]]
chain_sequence = "VLALYSPPLI"
study_system = "HLA-A*02:03"
recorded_measurement = 7.00

[[record]]
chain_sequence = "RAFIYSIMET"
study_system = "HLA-A*02:03"
recorded_measurement = 7.16

[[record]]
chain_sequence = "TMKAIEKDRL"
study_system = "HLA-A*02:03"
recorded_measurement = 5.97


###

Study System: HLA-B*15:01
Test Name: IEDB peptide-MHC binding, purified MHC/direct/fluorescence; filed as Kd, often an IC50 or EC50 that approximates it; bounds were set here for any values at or beyond the usual limits of such assays
Measurement Conditions: source organism: Pseudomonas putida
Property Measured: Kd

[[record]]
chain_sequence = "NWDWGVFFK"
recorded_measurement = "≥ 20 µM"


###

Study System: HLA-A*69:01
Test Name: IEDB peptide-MHC binding, purified MHC/direct/fluorescence; filed as Kd, often an IC50 or EC50 that approximates it; bounds were set here for any values at or beyond the usual limits of such assays
Measurement Conditions: source organism: Haemophilus influenzae
pKd: −log10 of the molar value.
Property Measured: pKd

[[record]]
chain_sequence = "ILWGYGFLQ"
recorded_measurement = 4.89


###

Study System: HLA-B*51:01
Test Name: IEDB peptide-MHC binding, purified MHC/competitive/radioactivity; filed as Kd, often an IC50 or EC50 that approximates it; bounds were set here for any values at or beyond the usual limits of such assays
Measurement Conditions: source organism: Hepacivirus hominis
Property Measured: Kd

[[record]]
chain_sequence = "HSKRKCDEL"
recorded_measurement = "≥ 46.5 µM"


###

Study System: HLA-A*23:01
Test Name: IEDB peptide-MHC binding, purified MHC/competitive/radioactivity; filed as Kd, often an IC50 or EC50 that approximates it; bounds were set here for any values at or beyond the usual limits of such assays
Measurement Conditions: source organism: Dengue virus 1 Brazil/97-11/1997
Property Measured: Kd

[[record]]
chain_sequence = "LWTTLLSLTF"
recorded_measurement = "20.6 nM"


###

Study System: HLA-A*11:01
Test Name: IEDB peptide-MHC binding, purified MHC/direct/fluorescence; filed as Kd, often an IC50 or EC50 that approximates it; bounds were set here for any values at or beyond the usual limits of such assays
Measurement Conditions: source organism: Vibrio vulnificus
pKd: −log10 of the molar value.
Property Measured: pKd

[[record]]
chain_sequence = "STDTRHIPQ"
study_system = "HLA-A*11:01"
property_measured = "pKd"
recorded_measurement = "≤ 4.70"


###

Study System: HLA-B*27:05
Test Name: IEDB peptide-MHC binding, purified MHC/direct/fluorescence; filed as Kd, often an IC50 or EC50 that approximates it; bounds were set here for any values at or beyond the usual limits of such assays
Measurement Conditions: source organism: Influenza A virus (A/swine/Korea/S190/2004(H9N2))
pKd: −log10 of the molar value.
Property Measured: pKd

[[record]]
chain_sequence = "IPKRNRSIL"
recorded_measurement = "≤ 4.70"


###

Study System: HLA-B*27:05
Test Name: IEDB peptide-MHC binding, purified MHC/direct/fluorescence; filed as Kd, often an IC50 or EC50 that approximates it; bounds were set here for any values at or beyond the usual limits of such assays
Measurement Conditions: source organism: Ebola virus - Gabon (1994-1997)
Property Measured: Kd (nM)

[[record]]
chain_sequence = "GRYNLISPK"
property_measured = "Kd"
recorded_measurement = 74.6

